Each item that follows carries a reported solubility.
Assay: Solubility in Na2HPO4/NaH2PO4 buffer at pH 7.4
Type: physicochemical

{"columns": ["smi", "solubility, µg/mL"],
 "data": [
  ["O=C(O)CNCCOc1ccc(Cl)c2c1C1(CCCCC1)NC(=O)N2", 230],
  ["N#CCOc1ccc(Cl)c2c1C1(CCCCC1)NC(=O)N2", 4],
  ["O=C1Nc2c(Cl)ccc(OCc3ccc(C(=O)O)o3)c2C2(CCCCC2)N1", 100],
  ["O=C1Nc2c(Cl)ccc(OCCO)c2C2(CCCCC2)N1", 18],
  ["O=C1Nc2c(Cl)ccc(OCc3nn[nH]n3)c2C2(CCCCC2)N1", 345],
  ["CN(C)CCOc1ccc(Cl)c2c1C1(CCCCC1)NC(=O)N2", 195]
]}

* * *

Assay: Solubility in HCl/KCl buffer at pH 1
Format: physicochemical
measured attribute: solubility

{"columns": ["compound", "result"],
 "data": [
  ["CNCCOc1ccc(Cl)c2c1C1(CCCCC1)NC(=O)N2", "> 500 µg/mL"],
  ["NCCOc1ccc(Cl)c2c1C1(CCCCC1)NC(=O)N2", "> 500 µg/mL"],
  ["O=C1Nc2c(Cl)ccc(OCCCS(=O)(=O)O)c2C2(CCCCC2)N1", "> 500 µg/mL"],
  ["O=C(O)COc1ccc(Cl)c2c1C1(CCCCC1)NC(=O)N2", "1 µg/mL"],
  ["O=C1Nc2c(Cl)ccc(OCc3noc(O)n3)c2C2(CCCCC2)N1", "< 1 µg/mL"],
  ["O=C1Nc2c(Cl)ccc(OCCN3CCOCC3)c2C2(CCCCC2)N1", "> 500 µg/mL"],
  ["O=C1Nc2c(Cl)ccc(OCc3nn[nH]n3)c2C2(CCCCC2)N1", "< 1 µg/mL"],
  ["O=C(O)CNCCOc1ccc(Cl)c2c1C1(CCCCC1)NC(=O)N2", "> 500 µg/mL"],
  ["CN(C)CCOc1ccc(Cl)c2c1C1(CCCCC1)NC(=O)N2", "> 500 µg/mL"],
  ["CNCC(O)COc1ccc(Cl)c2c1C1(CCCCC1)NC(=O)N2 (stereo not given)", "> 500 µg/mL"],
  ["CN(C)CC(O)COc1ccc(Cl)c2c1C1(CCCCC1)NC(=O)N2 (stereo not given)", "> 500 µg/mL"],
  ["N#CCOc1ccc(Cl)c2c1C1(CCCCC1)NC(=O)N2", "4 µg/mL"],
  ["O=C1Nc2c(Cl)ccc(OCCO)c2C2(CCCCC2)N1", "11 µg/mL"],
  ["NCCOCCOc1ccc(Cl)c2c1C1(CCCCC1)NC(=O)N2", "> 500 µg/mL"],
  ["O=C1Nc2c(Cl)ccc(OCc3ccc(C(=O)O)o3)c2C2(CCCCC2)N1", "< 1 µg/mL"]
]}

* * *

Assay: Half-life in rats after peroral administration of 2.5 mg/kg
Type: ADME, organism-based
Set-up: dose 2.5 mg/kg, route oral
Conditions: rat, in vivo, po
Each item that follows carries a reported half-life.

{"columns": ["smi", "half-life (h)"],
 "data": [
  ["O=C(O)CNCCOc1ccc(Cl)c2c1C1(CCCCC1)NC(=O)N2", 2.7],
  ["O=C(O)COc1ccc(Cl)c2c1C1(CCCCC1)NC(=O)N2", 1.4],
  ["O=C1Nc2c(Cl)ccc(OCCO)c2C2(CCCCC2)N1", 1.5],
  ["O=C1Nc2c(Cl)ccc(OCCN3CCOCC3)c2C2(CCCCC2)N1", 0.32]
]}
